Let's go through some recorded IC50 values for 5HT₂ receptor (Rattus norvegicus) together.

{"Compound": "CS(=O)(=O)Nc1ccc(C(=O)C2CCN(CC(=O)c3cccnc3)CC2)cc1 [Compound #3, reference compound]", "Endpoint label": "IC50", "Value reported": "> 5000 nM"}
{"Compound": "CS(=O)(=O)Nc1ccc(C(=O)C2CCN(CC(=O)c3ccc(F)cc3)CC2)cc1", "Endpoint label": "IC50", "Value reported": "78 nM"}

Please find the next compound below.
Req: Tell me its IC50 on 5HT₂ receptor (Rattus norvegicus): CC(=O)Nc1ccc(C(=O)C2CCN(CC(=O)c3ccc(F)cc3)CC2)cc1
Sequence (P14842 whole entry): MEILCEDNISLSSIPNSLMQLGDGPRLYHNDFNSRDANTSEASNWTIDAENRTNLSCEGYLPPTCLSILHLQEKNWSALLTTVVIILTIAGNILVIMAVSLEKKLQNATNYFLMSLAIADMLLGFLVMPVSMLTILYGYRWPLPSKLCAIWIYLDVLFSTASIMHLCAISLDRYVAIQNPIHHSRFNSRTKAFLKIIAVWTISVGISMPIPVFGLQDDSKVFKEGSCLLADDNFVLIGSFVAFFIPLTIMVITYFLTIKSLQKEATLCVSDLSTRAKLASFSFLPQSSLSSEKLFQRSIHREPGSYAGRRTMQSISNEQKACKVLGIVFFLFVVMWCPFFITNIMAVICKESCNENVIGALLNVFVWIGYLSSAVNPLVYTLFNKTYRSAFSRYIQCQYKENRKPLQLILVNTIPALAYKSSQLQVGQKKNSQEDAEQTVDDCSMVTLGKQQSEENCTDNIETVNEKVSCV
Resp: 20 nM
